- experimental.details: Half life in human at […] by HPLC method
- Type: ADME, organism-based
- conditions: in vivo
measure: half-life (h)
Give just the numeric value; h need not be written.

Q. Need half-life, item C[C@@H](O)[C@H]1C(=O)N2C(C(=O)O)=C(S[C@@H]3CN[C@H](C(=O)Nc4cccc(C(=O)O)c4)C3)[C@H](C)[C@H]12
A. 5

###

- System: Prevotella melaninogenica
- experimental.details: Antimicrobial activity against Prevotella melaninogenica JCM 6325 by agar dilution method in presence of 5% laked sheep blood
- Assay type: functional
- conditions: ATCC 25845
Measured MIC, listed per entry for reference.
Give just the numeric value; µg/mL need not be written.

INSERT INTO results (chem_smiles, test_system, endpoint_unit, observed_result) VALUES
  ('C[C@@H](O)[C@H]1C(=O)N2C(C(=O)O)=C(S[C@@H]3CN[C@H](C(=O)N(C)C)C3)[C@H](C)[C@H]12', 'Prevotella melaninogenica', 'µg/mL', 0.125),
  ('C[C@@H](O)[C@H]1C(=O)N2C(C(=O)O)=C(S[C@@H]3CN[C@H](CNS(N)(=O)=O)C3)[C@H](C)[C@H]12', 'Prevotella melaninogenica', 'µg/mL', 0.125),
  ('CC(=N)N1CC[C@H](SC2=C(C(=O)O)N3C(=O)[C@H]([C@@H](C)O)[C@H]3C2)C1', 'Prevotella melaninogenica', 'µg/mL', 0.06),
  ('Cc1ncc([N+](=O)[O-])n1CCO', 'Prevotella melaninogenica', 'µg/mL', 1);

Q. Need MIC, item C[C@@H](O)[C@H]1C(=O)N2C(C(=O)O)=C(S[C@H]3C[C@@H](C(=O)N4CC[C@H](NC(=O)CNC(=N)N)C4)N(C)C3)[C@H](C)[C@H]12
A. 0.125

###

- Test system: Eubacterium limosum
- experimental.details: Antimicrobial activity against Eubacterium limosum by agar dilution method in presence of 5% laked sheep blood
- Assay type: functional
Measured MIC90, listed per entry for reference.
Write the numeric value and follow it with the unit.

Example entries begin here.
INSERT INTO assay_data (chem_smiles, observed_result) VALUES
  ('C[C@@H](O)[C@H]1C(=O)N2C(C(=O)O)=C(S[C@@H]3CN[C@H](C(=O)N(C)C)C3)[C@H](C)[C@H]12', '1 µg/mL'),
  ('Cc1ncc([N+](=O)[O-])n1CCO', '0.5 µg/mL');

Q. Need MIC90, item C[C@@H](O)[C@H]1C(=O)N2C(C(=O)O)=C(S[C@@H]3CN[C@H](CNS(N)(=O)=O)C3)[C@H](C)[C@H]12
A. 0.25 µg/mL

Q. Need MIC90, item C[C@@H](O)[C@H]1C(=O)N2C(C(=O)O)=C(S[C@H]3C[C@@H](C(=O)N4CC[C@H](NC(=O)CNC(=N)N)C4)N(C)C3)[C@H](C)[C@H]12
A. 0.5 µg/mL

Q. Need MIC90, item CC(=N)N1CC[C@H](SC2=C(C(=O)O)N3C(=O)[C@H]([C@@H](C)O)[C@H]3C2)C1
A. 2 µg/mL

###

- Tested on: Fusobacterium nucleatum
- experimental.details: Antimicrobial activity against Fusobacterium nucleatum by agar dilution method in presence of 5% laked sheep blood
- Assay type: functional
measure: MIC50 (µg/mL)
Give just the numeric value; µg/mL need not be written.

INSERT INTO measurements (molecule, endpoint_unit, observed_result) VALUES
  ('C[C@@H](O)[C@H]1C(=O)N2C(C(=O)O)=C(S[C@@H]3CN[C@H](C(=O)N(C)C)C3)[C@H](C)[C@H]12 [MEROPENEM]', 'µg/mL', 0.03),
  ('CC(=N)N1CC[C@H](SC2=C(C(=O)O)N3C(=O)[C@H]([C@@H](C)O)[C@H]3C2)C1', 'µg/mL', 0.125);

Q. Need MIC50, item C[C@@H](O)[C@H]1C(=O)N2C(C(=O)O)=C(S[C@@H]3CN[C@H](CNS(N)(=O)=O)C3)[C@H](C)[C@H]12 [DORIPENEM]
A. 0.03

###

- Tested on: Peptostreptococcus anaerobius
- experimental.details: Antimicrobial activity against Peptostreptococcus anaerobius ATCC 27337 by agar dilution method in presence of 5% laked sheep blood
- Assay type: functional
measure: MIC (µg/mL)
Give just the numeric value; µg/mL need not be written.

Example entries begin here.
INSERT INTO results (chem_smiles, test_system, measure, observed_result) VALUES
  ('C[C@@H](O)[C@H]1C(=O)N2C(C(=O)O)=C(S[C@@H]3CN[C@H](CNS(N)(=O)=O)C3)[C@H](C)[C@H]12', 'Peptostreptococcus anaerobius', 'MIC', 0.5),
  ('CCC[C@@H]1C[C@@H](C(=O)N[C@@H]([C@H]2O[C@H](SC)[C@H](O)[C@@H](O)[C@H]2O)[C@H](C)Cl)N(C)C1', 'Peptostreptococcus anaerobius', 'MIC', 0.25);

Q. Need MIC, item CC(=N)N1CC[C@H](SC2=C(C(=O)O)N3C(=O)[C@H]([C@@H](C)O)[C@H]3C2)C1
A. 0.125

Q. Need MIC, item Cc1ncc([N+](=O)[O-])n1CCO
A. 0.125

Q. Need MIC, item C[C@@H](O)[C@H]1C(=O)N2C(C(=O)O)=C(S[C@H]3C[C@@H](C(=O)N4CC[C@H](NC(=O)CNC(=N)N)C4)N(C)C3)[C@H](C)[C@H]12
A. 0.5

Q. Need MIC, item C[C@@H](O)[C@H]1C(=O)N2C(C(=O)O)=C(S[C@@H]3CN[C@H](C(=O)N(C)C)C3)[C@H](C)[C@H]12
A. 0.5

###

- Tested on: Finegoldia magna
- experimental.details: Antimicrobial activity against Finegoldia magna by agar dilution method in presence of 5% laked sheep blood
- Format: functional
measure: MIC50 (µg/mL)
Give just the numeric value; µg/mL need not be written.

Example entries begin here.
INSERT INTO measurements (molecule, endpoint_unit, observed_result) VALUES
  ('Cc1ncc([N+](=O)[O-])n1CCO [METRONIDAZOLE]', 'µg/mL', 0.5),
  ('C[C@@H](O)[C@H]1C(=O)N2C(C(=O)O)=C(S[C@H]3C[C@@H](C(=O)N4CC[C@H](NC(=O)CNC(=N)N)C4)N(C)C3)[C@H](C)[C@H]12 [TOMOPENEM]', 'µg/mL', 0.06),
  ('C[C@@H](O)[C@H]1C(=O)N2C(C(=O)O)=C(S[C@@H]3CN[C@H](CNS(N)(=O)=O)C3)[C@H](C)[C@H]12 [DORIPENEM]', 'µg/mL', 0.125),
  ('C[C@@H](O)[C@H]1C(=O)N2C(C(=O)O)=C(S[C@@H]3CN[C@H](C(=O)N(C)C)C3)[C@H](C)[C@H]12 [MEROPENEM]', 'µg/mL', 0.125);

Q. What value of MIC50 on Finegoldia magna does CC(=N)N1CC[C@H](SC2=C(C(=O)O)N3C(=O)[C@H]([C@@H](C)O)[C@H]3C2)C1 have?
A. 0.25

###

- Test system: Peptoniphilus asaccharolyticus
- experimental.details: Antimicrobial activity against Peptoniphilus asaccharolyticus by agar dilution method in presence of 5% laked sheep blood
- Type: functional
Measured MIC90, listed per entry for reference.
Give just the numeric value; µg/mL need not be written.

Example entries begin here.
INSERT INTO results (molecule, endpoint_unit, observed_result) VALUES
  ('C[C@@H](O)[C@H]1C(=O)N2C(C(=O)O)=C(S[C@@H]3CN[C@H](CNS(N)(=O)=O)C3)[C@H](C)[C@H]12 [DORIPENEM]', 'µg/mL', 0.125),
  ('CC(=N)N1CC[C@H](SC2=C(C(=O)O)N3C(=O)[C@H]([C@@H](C)O)[C@H]3C2)C1', 'µg/mL', 0.06),
  ('C[C@@H](O)[C@H]1C(=O)N2C(C(=O)O)=C(S[C@@H]3CN[C@H](C(=O)N(C)C)C3)[C@H](C)[C@H]12 [MEROPENEM]', 'µg/mL', 0.125),
  ('Cc1ncc([N+](=O)[O-])n1CCO [METRONIDAZOLE]', 'µg/mL', 2);

Next, consider the following molecule.
Q. Need MIC90, item C[C@@H](O)[C@H]1C(=O)N2C(C(=O)O)=C(S[C@H]3C[C@@H](C(=O)N4CC[C@H](NC(=O)CNC(=N)N)C4)N(C)C3)[C@H](C)[C@H]12 [TOMOPENEM]
A. 0.06

###

- System: Parabacteroides distasonis
- experimental.details: Antimicrobial activity against Parabacteroides distasonis by agar dilution method in presence of 5% laked sheep blood
- Type: functional
measure: MIC50 (µg/mL)
Give just the numeric value; µg/mL need not be written.

Q. Need MIC50, item CC(=N)N1CC[C@H](SC2=C(C(=O)O)N3C(=O)[C@H]([C@@H](C)O)[C@H]3C2)C1
A. 1

Q. Need MIC50, item C[C@@H](O)[C@H]1C(=O)N2C(C(=O)O)=C(S[C@H]3C[C@@H](C(=O)N4CC[C@H](NC(=O)CNC(=N)N)C4)N(C)C3)[C@H](C)[C@H]12 [TOMOPENEM]
A. 0.5

Q. Need MIC50, item Cc1ncc([N+](=O)[O-])n1CCO [METRONIDAZOLE]
A. 0.5

Q. Need MIC50, item C[C@@H](O)[C@H]1C(=O)N2C(C(=O)O)=C(S[C@@H]3CN[C@H](CNS(N)(=O)=O)C3)[C@H](C)[C@H]12 [DORIPENEM]
A. 0.5

Q. Need MIC50, item C[C@@H](O)[C@H]1C(=O)N2C(C(=O)O)=C(S[C@@H]3CN[C@H](C(=O)N(C)C)C3)[C@H](C)[C@H]12 [MEROPENEM]
A. 0.25

Provenance of the data: ChEMBL document CHEMBL1275576
